Readings of pIC50 for the listed molecules
molecular target: protein kinase C eta (Homo sapiens, UniProt P24723); test: PKC Enzyme assay, eta isozyme; type: biochemical; settings: PKC eta; 30 μM ATP, 30° C., 10 minutes; read-out: IC50 η
Sequence (P24723 whole entry): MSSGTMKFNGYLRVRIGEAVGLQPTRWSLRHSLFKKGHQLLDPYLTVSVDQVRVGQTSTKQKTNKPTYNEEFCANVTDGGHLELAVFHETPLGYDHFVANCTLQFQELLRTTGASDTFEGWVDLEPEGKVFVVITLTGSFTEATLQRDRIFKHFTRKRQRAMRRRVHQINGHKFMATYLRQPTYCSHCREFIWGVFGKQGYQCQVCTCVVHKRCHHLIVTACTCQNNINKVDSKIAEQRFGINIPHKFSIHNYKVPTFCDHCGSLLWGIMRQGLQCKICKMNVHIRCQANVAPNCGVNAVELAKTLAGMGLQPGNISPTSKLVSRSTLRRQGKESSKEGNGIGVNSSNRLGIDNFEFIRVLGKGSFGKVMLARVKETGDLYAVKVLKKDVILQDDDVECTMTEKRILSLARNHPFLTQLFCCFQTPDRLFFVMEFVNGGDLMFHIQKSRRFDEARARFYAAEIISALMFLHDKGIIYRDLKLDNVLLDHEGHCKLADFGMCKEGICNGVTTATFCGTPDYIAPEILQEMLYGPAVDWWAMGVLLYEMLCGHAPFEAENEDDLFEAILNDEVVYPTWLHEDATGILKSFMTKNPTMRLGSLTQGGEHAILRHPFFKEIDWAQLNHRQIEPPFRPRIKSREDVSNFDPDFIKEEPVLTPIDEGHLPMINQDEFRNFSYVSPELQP
Please treat pIC50 as minus the base-10 logarithm of the molar concentration.

molecule | pIC50
CN(C)CCCn1cc(C2=C(c3cn(C)c4ccccc34)C(=O)NC2=O)c2ccccc21 [Example 13] | 6.33
CC(=O)N1CCC(n2cc(C3=C(c4cn(C)c5ccccc45)C(=O)NC3=O)c3ccccc32)CC1 [Example 37] | 7.00
Cn1cc(C2=C(c3cn(C4CCN(C(=N)N)CC4)c4ccccc34)C(=O)NC2=O)c2ccccc21 [Example 44] | 8.30

Report pIC50, nothing else, for this molecule: O=C1NC(=O)C(c2cn(C3CCNCC3)c3ccccc23)=C1c1c[nH]c2ccccc12 [Example 50]
7.00

Report pIC50, nothing else, for this molecule: CCN1CCC(n2cc(C3=C(c4cn(C)c5ccccc45)C(=O)NC3=O)c3ccccc32)CC1 [Example 40]
7.40

Report pIC50, nothing else, for this molecule: Cn1cc(C2=C(c3cn(CCOC4C[C@@H](N=[N+]=[N-])[C@@H](CO)O4)c4ccccc34)C(=O)NC2=O)c2ccccc21 (stereo partly drawn) [Example 62]
5.59

* * *

molecular target: protein kinase C alpha (Homo sapiens); experiment: PKC Enzyme assay, alpha isozyme; type: biochemical; conditions: PKC alpha; 30 μM ATP, 30° C., 10 minutes; read-out: IC50 α
Checkbox rule: IC50 lower than 3 µM = 1.0; IC50 not lower than 3 µM = 0.0.

# count of solved cases: 5
compound | class.assignment
Cn1cc(C2=C(c3cn(C4CCN(C(=NC(=O)OC(C)(C)C)NC(=O)OC(C)(C)C)CC4)c4ccccc34)C(=O)NC2=O)c2ccccc21 [Example 5] | 1.0
O=C1NC(=O)C(c2cn(CCCO)c3ccccc23)=C1c1c[nH]c2ccccc12 [Example 11] | 1.0
Cn1cc(C2=C(c3cn(CCOC4C[C@H](N)[C@@H](CO)O4)c4ccccc34)C(=O)NC2=O)c2ccccc21 (some centres unmarked) [Example 63] | 1.0
Cn1cc(C2=C(c3cn(CCOC4O[C@H](CO)[C@@H](O)[C@@H](N=[N+]=[N-])[C@H]4O)c4ccccc34)C(=O)NC2=O)c2ccccc21 (some centres unmarked) [Example 59] | 0.0
Cn1cc(C2=C(c3cn(C4CCN(C(=N)N)CC4)c4ccccc34)C(=O)NC2=O)c2ccccc21 [Example 44] | 1.0

Lab note: IC50 threshold 3 µM. Does this compound come in strictly under it? Cn1cc(C2=C(c3cn(C4CN(C(c5ccccc5)c5ccccc5)C4)c4ccccc34)C(=O)NC2=O)c2ccccc21 [Example 72]
0.0

Lab note: IC50 threshold 3 µM. Does this compound come in strictly under it? O=C1NC(=O)C(c2cn(Cc3ccccc3)c3ccccc23)=C1c1c[nH]c2ccccc12 [Example 14]
0.0

Lab note: IC50 threshold 3 µM. Does this compound come in strictly under it? Cn1cc(C2=C(c3cn(CCCCOC4C[C@H](O)[C@@H](CO)O4)c4ccccc34)C(=O)NC2=O)c2ccccc21 (some centres unmarked) [Example 56]
1.0

Lab note: IC50 threshold 3 µM. Does this compound come in strictly under it? Cn1cc(C2=C(c3cn(CCCCOC4CC(O)C(CN)O4)c4ccccc34)C(=O)NC2=O)c2ccccc21 (centres unmarked) [Example 54]
0.0

Lab note: IC50 threshold 3 µM. Does this compound come in strictly under it? Cn1cc(C2=C(c3cn(CCOC4C[C@@H](N=[N+]=[N-])[C@@H](CO)O4)c4ccccc34)C(=O)NC2=O)c2ccccc21 (some centres unmarked) [Example 62]
0.0

Lab note: IC50 threshold 3 µM. Does this compound come in strictly under it? Cn1cc(C2=C(c3cn(CCCCOC4CC(O)C(CN)O4)c4ccccc34)C(=O)NC2=O)c2ccccc21 (centres unmarked) [Example 53]
0.0

Lab note: IC50 threshold 3 µM. Does this compound come in strictly under it? Cc1c(C2=C(c3c(C)n(CN(C)C)c4ccccc34)C(=O)NC2=O)c2ccccc2n1CCCN(C)C [Example 16]
0.0

Lab note: IC50 threshold 3 µM. Does this compound come in strictly under it? O=C1NC(=O)C(c2cn(C3CCNCC3)c3ccccc23)=C1c1c[nH]c2ccccc12 [Example 50]
1.0

Lab note: IC50 threshold 3 µM. Does this compound come in strictly under it? CC(=O)NCC1OC(OCCCCn2cc(C3=C(c4cn(C)c5ccccc45)C(=O)N(C(C)=O)C3=O)c3ccccc32)CC1OC(C)=O (centres unmarked) [Example 70]
0.0

Lab note: IC50 threshold 3 µM. Does this compound come in strictly under it? Cn1cc(C2=C(c3c4n(c5ccccc35)CCC(CO)C4)C(=O)NC2=O)c2ccccc21 (centres unmarked) [Example 9]
1.0

Lab note: IC50 threshold 3 µM. Does this compound come in strictly under it? Cn1cc(C2=C(c3cn(C4CCOC4)c4ccccc34)C(=O)NC2=O)c2ccccc21 (centres unmarked) [Example 64]
1.0

* * *

molecular target: protein kinase C gamma (Homo sapiens, UniProt P05129); test: PKC Enzyme assay, gamma isozyme; assay type: biochemical; conditions: PKC gamma; 30 μM ATP, 30° C., 10 minutes; read-out: IC50 γ
Readings of pIC50 for the listed compounds
Please treat pIC50 as minus the base-10 logarithm of the molar concentration.

compound | pIC50
CN(C)CCCn1cc(C2=C(c3cn(C)c4ccccc34)C(=O)NC2=O)c2ccccc21 | 5.77
O=C1NC(=O)C(c2cn(C3CCNCC3)c3ccccc23)=C1c1c[nH]c2ccccc12 | 6.22

Report pIC50, nothing else, for this compound: CC(C)N1CCC(n2cc(C3=C(c4cn(C)c5ccccc45)C(=O)NC3=O)c3ccccc32)CC1
5.89

Report pIC50, nothing else, for this compound: Cn1cc(C2=C(c3cn(CCCCOC4CC(O)C(CN)O4)c4ccccc34)C(=O)NC2=O)c2ccccc21 (stereo not shown) [Example 53]
5.37

Report pIC50, nothing else, for this compound: CC(C)(C)OC(=O)N1CCC(n2cc(C3=C(c4c[nH]c5ccccc45)C(=O)NC3=O)c3ccccc32)CC1
5.55

Report pIC50, nothing else, for this compound: Cc1c(C2=C(c3cn(CN(C)C)c4ccccc34)C(=O)NC2=O)c2ccccc2n1CCCN(C)C
5.40

Report pIC50, nothing else, for this compound: CN1CCC(n2cc(C3=C(c4cn(C)c5ccccc45)C(=O)NC3=O)c3ccccc32)CC1
6.30

Report pIC50, nothing else, for this compound: CC(=O)NC[C@H]1O[C@H](OCCn2cc(C3=C(c4cn(C)c5ccccc45)C(=O)NC3=O)c3ccccc32)C[C@@H]1O
5.36

Report pIC50, nothing else, for this compound: CCOC(=O)CN1CCC(n2cc(C3=C(c4cn(C)c5ccccc45)C(=O)NC3=O)c3ccccc32)CC1
5.30

Report pIC50, nothing else, for this compound: Cn1cc(C2=C(c3cn(C4CCN(c5ccccn5)CC4)c4ccccc34)C(=O)NC2=O)c2ccccc21
5.30

Report pIC50, nothing else, for this compound: Cn1cc(C2=C(c3cn(C4CCN(Cc5ccccc5)CC4)c4ccccc34)C(=O)NC2=O)c2ccccc21
5.15

* * *

Readings of pIC50 for the listed compounds
biological target: protein kinase C eta (Homo sapiens, UniProt P24723); assay: PKC Enzyme assay, eta isozyme; type: biochemical; conditions: PKC eta; 30 μM ATP, 30° C., 10 minutes; read-out: IC50 η
Please treat pIC50 as minus the base-10 logarithm of the molar concentration.

compound | measured
Cn1cc(C2=C(c3cn(C4CCN(Cc5ccccc5)CC4)c4ccccc34)C(=O)NC2=O)c2ccccc21 [Example 4] | 6.30
CN(C)CCCN1CCC(n2cc(C3=C(c4cn(C)c5ccccc45)C(=O)NC3=O)c3ccccc32)CC1 | 5.70

Turning now to a further record.
Report pIC50, nothing else, for this compound: Cn1cc(C2=C(c3cn(CCOC4C[C@H](N=[N+]=[N-])[C@@H](CO)O4)c4ccccc34)C(=O)NC2=O)c2ccccc21 (stereo partly drawn)
6.12

* * *

target: protein kinase C delta (Homo sapiens, UniProt Q05655); assay: biochemical; details: PKC delta; 30 μM ATP, 30° C., 10 minutes; read-out: IC50 δ
Sequence (Q05655 whole entry): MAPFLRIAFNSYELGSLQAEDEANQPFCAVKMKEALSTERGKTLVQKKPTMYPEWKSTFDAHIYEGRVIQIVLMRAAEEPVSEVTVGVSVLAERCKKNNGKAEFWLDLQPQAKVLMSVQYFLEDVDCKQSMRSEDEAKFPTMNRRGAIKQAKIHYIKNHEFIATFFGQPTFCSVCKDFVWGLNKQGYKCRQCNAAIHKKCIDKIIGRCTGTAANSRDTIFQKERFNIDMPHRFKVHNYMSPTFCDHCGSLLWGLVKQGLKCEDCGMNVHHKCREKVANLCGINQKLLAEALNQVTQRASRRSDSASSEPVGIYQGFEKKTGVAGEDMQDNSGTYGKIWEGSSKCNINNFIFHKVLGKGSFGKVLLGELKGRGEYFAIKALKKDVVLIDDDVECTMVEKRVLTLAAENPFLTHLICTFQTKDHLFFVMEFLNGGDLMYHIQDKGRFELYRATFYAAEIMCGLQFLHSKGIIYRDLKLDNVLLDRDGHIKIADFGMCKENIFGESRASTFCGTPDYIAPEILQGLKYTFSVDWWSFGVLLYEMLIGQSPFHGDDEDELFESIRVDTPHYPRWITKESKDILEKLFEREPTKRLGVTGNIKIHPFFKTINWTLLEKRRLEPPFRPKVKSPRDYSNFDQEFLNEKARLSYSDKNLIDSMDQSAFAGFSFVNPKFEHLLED
measured.attribute: IC50 (µM)
// units = µM; emit number, no label

See these solved cases before continuing.
compound | unit | IC50
Cn1cc(C2=C(c3cn(C4CCOC4)c4ccccc34)C(=O)NC2=O)c2ccccc21 (stereo not drawn) | µM | 0.16
Cn1cc(C2=C(c3cn(CCCCOC4CC(O)C(CN)O4)c4ccccc34)C(=O)NC2=O)c2ccccc21 (stereo not drawn) [Example 54] | µM | 7.9

Turning now to a further record.
Report IC50, nothing else, for this compound: Cn1cc(C2=C(c3c4n(c5ccccc35)CCC(CO)(CO)C4)C(=O)NC2=O)c2ccccc21
6.8

Hey, just so you know, these numbers are from patent US5668152A.
